src = patent US20150203474A1

Assay: PK study of Form A of Compound I in rats
Type: in vivo
Details: male, Sprague-Dawley, rat, plasma, po, 75 mg/kg, single PO dose of 75 mg/kg, male SD rats, 2 hr, Rat #3; read-out: plasma concentration
Method: The pharmacokinetics (PK) properties of Form A of Compound I and Form I of Compound II were determined in a series of comprehensive experiments in preclinical species including Sprague-Dawley rats, beagle dogs, cynomolgus monkeys. […] For the validated assay in rat and monkey EDTA plasma, the Lower Limit of Quantitation (LLOQ) for both compound 1 and 2 was 5.00 ng/mL, and the assay was linear from 5.00-1,000 ng/mL. […]
measure: concentration at 2 h (ng/mL)
Your answer is read as ng/mL, so omit the unit and give the number.

Short answer for COC(=O)N[C@H](C(=O)N1CCC[C@H]1c1ncc(-c2ccc3cc(-c4ccc5nc([C@@H]6CCCN6C(=O)[C@@H](NC(=O)OC)C(C)C)[nH]c5c4)ccc3c2)[nH]1)C(C)C [Form A of Compound I] : concentration at 2 h was 6380

* * *

Experiment: PK study of Form A of Compound I in rats
Assay type: in vivo
Conditions: male, Sprague-Dawley, rat, plasma, po, 75 mg/kg, single PO dose of 75 mg/kg, male SD rats, 4 hr, Rat #2; read-out: plasma concentration
measure: concentration at 4 h
Form field: result (number plus unit)

Short answer for COC(=O)N[C@H](C(=O)N1CCC[C@H]1c1ncc(-c2ccc3cc(-c4ccc5nc([C@@H]6CCCN6C(=O)[C@@H](NC(=O)OC)C(C)C)[nH]c5c4)ccc3c2)[nH]1)C(C)C [Form A of Compound I] : concentration at 4 h was 5.17 µg/mL

* * *

Assay: PK study of Form A of Compound I in rats
Assay type: in vivo
Settings: male, Sprague-Dawley, rat, plasma, po, 75 mg/kg, single PO dose of 75 mg/kg, male SD rats, 24 hr, Rat #2; read-out: plasma concentration
measure: concentration at 24 h (ng/mL)
Your answer is read as ng/mL, so omit the unit and give the number.

Short answer for COC(=O)N[C@H](C(=O)N1CCC[C@H]1c1ncc(-c2ccc3cc(-c4ccc5nc([C@@H]6CCCN6C(=O)[C@@H](NC(=O)OC)C(C)C)[nH]c5c4)ccc3c2)[nH]1)C(C)C [Form A of Compound I] : concentration at 24 h was 7.95

* * *

Experiment: Solubility of Form I and free base compound 4-3 (visual and HPLC assay of filtrate)
Format: physicochemical
Details: pH 3 medium, pH 3, aqueous buffer, thermodynamic from solid, pH 3 medium; target conc. 2.0 mg/mL; read-out: Visual Solubility
measure: solubility at 24 h

Short answer for CC[C@H](C)[C@H](NC(=O)OC)C(=O)N1CCC[C@H]1c1nc2ccc(-c3ccc4cc(-c5cnc([C@@H]6CCCN6C(=O)[C@@H](NC(=O)OC)[C@@H](C)OC)[nH]5)ccc4c3)cc2[nH]1 [Form I of Compound II] : solubility at 24 h was > 2 mg/mL

* * *

Assay: PK study of Form I of Compound II in monkeys
Type: in vivo
Conditions: male, cynomolgus monkey, plasma, po, 75 mg/kg, PO dose of 75 mg/kg, 2 hr, #0610703, read-out: plasma concentration
measure: concentration at 2 hr (ng/mL)
Your answer is read as ng/mL, so omit the unit and give the number.

Short answer for CC[C@H](C)[C@H](NC(=O)OC)C(=O)N1CCC[C@H]1c1nc2ccc(-c3ccc4cc(-c5cnc([C@@H]6CCCN6C(=O)[C@@H](NC(=O)OC)[C@@H](C)OC)[nH]5)ccc4c3)cc2[nH]1 [Form I of Compound II] : concentration at 2 hr was 336

* * *

Test: PK study of Form A of Compound I in rats
Assay type: in vivo
Details: male, Sprague-Dawley, rat, plasma, po, 75 mg/kg, single PO dose of 75 mg/kg, male SD rats, 2 hr, Rat #1; read-out: plasma concentration
measure: concentration at 2 h (ng/mL)
Your answer is read as ng/mL, so omit the unit and give the number.

Short answer for COC(=O)N[C@H](C(=O)N1CCC[C@H]1c1ncc(-c2ccc3cc(-c4ccc5nc([C@@H]6CCCN6C(=O)[C@@H](NC(=O)OC)C(C)C)[nH]c5c4)ccc3c2)[nH]1)C(C)C [Form A of Compound I] : concentration at 2 h was 8030

* * *

Assay: Solubility of Form A (aliquot addition / slurry, visual)
Format: physicochemical
Conditions: organic solvent or mixture, thermodynamic from solid; IPA, RT, slurry, 4 days
measure: solubility at 4 days

Short answer for COC(=O)N[C@H](C(=O)N1CCC[C@H]1c1ncc(-c2ccc3cc(-c4ccc5nc([C@@H]6CCCN6C(=O)[C@@H](NC(=O)OC)C(C)C)[nH]c5c4)ccc3c2)[nH]1)C(C)C [Form A of Compound I] : solubility at 4 days was < 3000 µg/mL

* * *

Assay: PK study of Form I of Compound II in monkeys
Assay type: in vivo
Details: male, cynomolgus monkey, plasma, po, 75 mg/kg, PO dose of 75 mg/kg, 0.5 hr, #0612169, read-out: plasma concentration
measure: concentration at 0.5 hr (ng/mL)
Your answer is read as ng/mL, so omit the unit and give the number.

Short answer for CC[C@H](C)[C@H](NC(=O)OC)C(=O)N1CCC[C@H]1c1nc2ccc(-c3ccc4cc(-c5cnc([C@@H]6CCCN6C(=O)[C@@H](NC(=O)OC)[C@@H](C)OC)[nH]5)ccc4c3)cc2[nH]1 [Form I of Compound II] : concentration at 0.5 hr was 273

* * *

Assay: PK study of Form A of Compound I in rats
Format: in vivo
Settings: male, Sprague-Dawley, rat, plasma, po, 75 mg/kg, single PO dose of 75 mg/kg, male SD rats, 1 hr, Mean (N = 3); read-out: mean plasma concentration
Method: The pharmacokinetics (PK) properties of Form A of Compound I and Form I of Compound II were determined in a series of comprehensive experiments in preclinical species including Sprague-Dawley rats, beagle dogs, cynomolgus monkeys. […] For the validated assay in rat and monkey EDTA plasma, the Lower Limit of Quantitation (LLOQ) for both compound 1 and 2 was 5.00 ng/mL, and the assay was linear from 5.00-1,000 ng/mL. […]
measure: concentration at 1 h
Form field: result (number plus unit)

Short answer for COC(=O)N[C@H](C(=O)N1CCC[C@H]1c1ncc(-c2ccc3cc(-c4ccc5nc([C@@H]6CCCN6C(=O)[C@@H](NC(=O)OC)C(C)C)[nH]c5c4)ccc3c2)[nH]1)C(C)C [Form A of Compound I] : concentration at 1 h was 5970 ng/mL

* * *

Experiment: PK study of Form I of Compound II in monkeys
Assay type: in vivo
Settings: male, cynomolgus monkey, plasma, po, 75 mg/kg, PO dose of 75 mg/kg, 24 hr, Mean, read-out: mean plasma concentration
measure: concentration at 24 h (ng/mL)
Your answer is read as ng/mL, so omit the unit and give the number.

Short answer for CC[C@H](C)[C@H](NC(=O)OC)C(=O)N1CCC[C@H]1c1nc2ccc(-c3ccc4cc(-c5cnc([C@@H]6CCCN6C(=O)[C@@H](NC(=O)OC)[C@@H](C)OC)[nH]5)ccc4c3)cc2[nH]1 [Form I of Compound II] : concentration at 24 h was 8.08

* * *

Assay: PK study of Form I of Compound II in monkeys
Assay type: in vivo
Details: male, cynomolgus monkey, plasma, po, 75 mg/kg, PO dose of 75 mg/kg, 0.083 hr, #0612169, read-out: plasma concentration
Description: The pharmacokinetics (PK) properties of Form A of Compound I and Form I of Compound II were determined in a series of comprehensive experiments in preclinical species including Sprague-Dawley rats, beagle dogs, cynomolgus monkeys. […] For the validated assay in rat and monkey EDTA plasma, the Lower Limit of Quantitation (LLOQ) for both compound 1 and 2 was 5.00 ng/mL, and the assay was linear from 5.00-1,000 ng/mL. […]
measure: concentration at 0.083 h (ng/mL)
Your answer is read as ng/mL, so omit the unit and give the number.

Short answer for CC[C@H](C)[C@H](NC(=O)OC)C(=O)N1CCC[C@H]1c1nc2ccc(-c3ccc4cc(-c5cnc([C@@H]6CCCN6C(=O)[C@@H](NC(=O)OC)[C@@H](C)OC)[nH]5)ccc4c3)cc2[nH]1 [Form I of Compound II] : concentration at 0.083 h was 8.33

* * *

Test: PK study of Form A of Compound I in rats
Assay type: in vivo
Conditions: male, Sprague-Dawley, rat, plasma, po, 75 mg/kg, single PO dose of 75 mg/kg, male SD rats, 12 hr, Rat #2; read-out: plasma concentration
measure: concentration at 12 h
Form field: result (number plus unit)

Short answer for COC(=O)N[C@H](C(=O)N1CCC[C@H]1c1ncc(-c2ccc3cc(-c4ccc5nc([C@@H]6CCCN6C(=O)[C@@H](NC(=O)OC)C(C)C)[nH]c5c4)ccc3c2)[nH]1)C(C)C [Form A of Compound I] : concentration at 12 h was 277 ng/mL
